From: paper PMC9027599

A collection of compounds and their measured IC50 against cysteine protease (in vitro)
# Target entity: cysteine protease
# Procedure summary: Cysteine proteinase activity, Z-Phe-Arg-MNA (in vitro)
# Assay type: biochemical, Rhynchophorus ferrugineus
# Protocol conditions: fourth instar larvae midgut homogenate
Answer in µg/mL, number only, no unit symbol.

Check out these entries, answers already filled in.
INSERT INTO assay_data (compound, observed) VALUES
  ('O=C(O)C[C@H](C(=O)O)[C@@H](O)C(=O)O [Isocitric acid]', 119.1),
  ('C[C@H]1[C@H](C)CC[C@]2(C(=O)O)CC[C@]3(C)C(=CC[C@@H]4[C@@]5(C)CC[C@H](O)C(C)(C)[C@@H]5CC[C@]43C)[C@H]12 [Ursolic acid]', 58.2),
  ('O=C(/C=C/c1ccc(O)c(O)c1)O[C@H](Cc1ccc(O)c(O)c1)C(=O)O [Rosmarinic acid]', 67.8),
  ('O=C(/C=C/c1ccc(O)c(O)c1)O/C=C\c1ccc(O)c(O)c1 [Nepetoidin B]', 63.3),
  ('COc1ccc(-c2cc(=O)c3c(O)c(OC)c(OC)cc3o2)cc1 [Salvigenin, 5-Hydroxy-6,7,4′-trimethoxyflavone]', 89.6);

# ---- query compound ----
Short answer for C[C@@H]1O[C@@H](OC[C@H]2O[C@@H](Oc3c(-c4ccc(O)c(O)c4)oc4cc(O)cc(O)c4c3=O)[C@H](O)[C@@H](O)[C@@H]2O)[C@H](O)[C@H](O)[C@H]1O [Quercetin-3-O-rutinoside] : IC50 against cysteine protease (in vitro) was 53.6
